test: Plasma pharmacokinetics after intraperitoneal injection in mice; format: in vivo; details: mouse, Table 4, male mice, 5 mg/kg IP
outcome.measure: AUC(0-t) (ng·h/mL)
Number only, in ng·h/mL; omit the unit.

Quote AUC(0-t) reported for COc1ccc(-c2ccc(C(F)(F)F)cc2Oc2ccc3cnccc3n2)cc1 [Example 78] please.
343

----------
test: Plasma pharmacokinetics after intraperitoneal injection in mice; type: in vivo; details: mouse, female mice, 5 mg/kg IP
outcome.measure: Cmax (ng/mL)
Number only, in ng/mL; omit the unit.

Quote Cmax reported for Cc1cc(C)c(Oc2ccc3cnccc3n2)c(-c2ccccc2)c1 [Example 71] please.
345

----------
target: REV-ERBβ (Homo sapiens (Human), UniProt Q14995); test: FRET assay for REV-ERB ligands (REV-ERBβ LBD / NCoR ID2 peptide interaction); conditions: TR-FRET, His-tagged REV-ERBβ LBD, fluorescein NCoR ID2 peptide; read-out: RevErbβ Inhibition IC50
Sequence (Q14995 381-579): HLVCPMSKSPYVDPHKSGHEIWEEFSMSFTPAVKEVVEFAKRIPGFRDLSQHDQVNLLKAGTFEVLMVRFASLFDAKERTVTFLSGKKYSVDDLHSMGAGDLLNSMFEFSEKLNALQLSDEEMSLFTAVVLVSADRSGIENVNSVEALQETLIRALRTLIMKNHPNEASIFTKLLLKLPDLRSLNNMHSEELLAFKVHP
pIC50: −log10 of the molar value.
Answer each item with its documented pIC50.

Quote pIC50 reported for Cc1cccc(-c2ccccc2Oc2ccc3ncn(C)c3n2)c1 please.
≥ 6.60

Quote pIC50 reported for FC(F)(F)c1cc(Oc2ccccc2-c2ccccc2)nc2ccccc12 please.
< 6.00

Quote pIC50 reported for FC(F)(F)c1ccccc1Oc1ccc2ccncc2n1 please.
≥ 6.60

Quote pIC50 reported for c1ccc2c(Oc3ccc4cnccc4n3)cccc2c1 please.
< 6.00

Quote pIC50 reported for c1ccc(-c2ccccc2Oc2ccc3cnccc3n2)nc1 please.
≥ 6.60

Quote pIC50 reported for c1ccc(-c2ccccc2Oc2ccc3ncccc3n2)cc1 please.
< 6.00

Quote pIC50 reported for c1ccc(-c2ccccc2Oc2ccc3ccncc3n2)cc1 please.
≥ 6.60

Quote pIC50 reported for Cn1ncc2cnc(Oc3ccccc3-c3cccnc3)nc21 please.
≥ 6.60

Quote pIC50 reported for Cn1cnc2ccc(Oc3ccccc3-c3cccc(F)c3)nc21 please.
6.00 to 6.60

Quote pIC50 reported for Cn1cnc2ccc(Oc3ccccc3-c3ccccc3)nc21 please.
≥ 6.60

Quote pIC50 reported for c1ccc(-c2cccc(Oc3ccc4ccncc4n3)c2)cc1 please.
< 6.00

Quote pIC50 reported for FC(F)(F)c1ccccc1Oc1ccc2cnccc2n1 please.
< 6.00
